Cited source for all entries: PubChem BioAssay AID1159580

ASSAY: chemical genetic growth profiling, strain panel (AID 1159580);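 note: tested at 20 µM; growth read once vehicle control cultures reached saturation at 30 °C; 1 = growth at the plate median or of vehicle wells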
CONDITION SUMMARY: S. cerevisiae deletion strains, growth OD, locus YEL037C, strain rad23, stronger effect = lower value
In all, about 5,500 compounds went through this assay and about 2,000 (36%) were called active. Inconclusive results (about 18%) are left out. This is one part of the list.
READOUT: normalized growth

> print(dat)
                                   molecule            readout  experimental.value
1            Cn1c([N+](=O)[O-])cnc1COC(N)=O  normalized growth    0.998 (inactive)
2       O=C1c2ccccc2C(=O)c2c(O)c(O)cc(O)c21  normalized growth      0.421 (active)
3                       FC(F)(F)COCC(F)(F)F  normalized growth     1.01 (inactive)
4  COC(=O)C1=CO[C@@H](O[C@@H]2O[C@H](CO)[C@@H](O)[C@H](O)[C@H]2O)[C@@H]2[C@@H](C)[C@@H](O)C[C@H]12  normalized growth     1.01 (inactive)
5   Cn1cnc([N+](=O)[O-])c1Sc1ncnc2nc[nH]c12  normalized growth     1.01 (inactive)
6  CCCCC(=O)O[C@H]1CCC2C3CCc4cc(O)ccc4C3CC[C@@]21C (stereo partly drawn)  normalized growth     1.02 (inactive)

*Q* Answer with reported normalized growth of CCC(=O)O[C@H]1CCC2C3CCc4cc(O)ccc4C3CC[C@@]21C (stereo partly drawn)
*A* 0.995 (inactive)

---

ASSAY: chemical genetic growth profiling, strain panel (AID 1159580)
CONDITION SUMMARY: S. cerevisiae deletion strains, growth OD, locus YDL035C, strain GPR1, stronger effect = lower value
Hit rate of the full screen: of about 5,500 compounds, about 2,000 (36%) were called active. Not shown: some 18% with an inconclusive outcome. Some of the results follow.
Measured normalized growth of individual entries
Please reply with the value in numeric form only.

Worked examples follow.
> print(dat)
                                   molecule  experimental.value
1            O=C1c2ccccc2C(=O)c2c1ccc(O)c2O               0.231
2  Cc1c(N(C)CS(=O)(=O)O)c(=O)n(-c2ccccc2)n1C                   1
3                 Cc1ncc([N+](=O)[O-])n1CCO               0.967
4  CC1(C)S[C@@H]2[C@H](NC(=O)COc3ccccc3)C(=O)N2[C@H]1C(=O)O                1.01
5    O=C1c2ccc(O)c(O)c2C(=O)c2c(O)ccc(O)c21                1.03

*Q* Answer with reported normalized growth of CCCCC(=O)O[C@H]1CCC2C3CCc4cc(O)ccc4C3CC[C@@]21C (stereo partly specified)
*A* 0.948

---

ASSAY: chemical genetic growth profiling, strain panel (AID 1159580)
CONDITION SUMMARY: S. cerevisiae deletion strains, growth OD, locus YAL013W, strain DEP1
Screen size: about 5,500 compounds; about 2,000 (36%) were called active. Roughly 18% stayed inconclusive and do not appear here. No stated cut-off is given here; in the data, active means normalized growth mostly below about 0.91 (no sharp cut-off); inconclusive means no clear call, values can overlap the other calls; inactive means mostly above about 0.92. This is one part of the list.
Classes to choose from: y for active, n for inactive

Below, 5 compounds whose answers are already recorded.
> print(dat)
                                   compound  discrete.label
1  O=c1ccc2cc(O[C@@H]3O[C@H](CO)[C@@H](O)[C@H](O)[C@H]3O)c(O)cc2o1               n
2                                      NCCS               n
3  CCCCCc1ccc(S(=O)(=O)Nc2cccnc2Oc2ccc(Cl)cc2)cc1               n
4    N#CC(C#N)=CNc1cc(C(F)(F)F)ccc1N1CCCCC1               n
5           Cc1ccc(S(=O)(=O)/C(C#N)=N\O)cc1               n

API: the following record is the query input.
*Q* Query: recorded result category for CN1CCN(C(c2ccccc2)c2ccccc2)CC1 in this test
*A* n

---

ASSAY: chemical genetic growth profiling, strain panel (AID 1159580);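 note: tested at 20 µM; growth read once vehicle control cultures reached saturation at 30 °C; 1 = growth at the plate median or of vehicle wells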
CONDITION SUMMARY: S. cerevisiae deletion strains, growth OD, locus YDL040C, strain nat1
About 2,000 (36%) of roughly 5,500 compounds were called active. About 18% were inconclusive and are not listed. No stated cut-off is given here; in the data, active means normalized growth mostly below about 0.91 (no sharp cut-off); inconclusive means no clear call, values can overlap the other calls; inactive means mostly above about 0.92. This is one part of the list.
Classes to choose from: active, inactive

Below, 3 molecules whose answers are already recorded.
MOLECULE	DISCRETE LABEL
O=C1c2ccccc2-c2cccc3cccc1c23	inactive
CCCCC/C=C\C/C=C\C/C=C\C/C=C\CCCC(=O)O	inactive
C[C@H]1C(=O)O[C@@H]2CCN3CC=C(COC(=O)[C@](C)(O)[C@]1(C)O)[C@H]23	inactive

*Q* Query: recorded result category for CCNc1nc(Cl)nc(NC(C)C)n1 in this test
*A* inactive

*Q* Query: recorded result category for CCCc1nc(C(C)(C)O)c(C(=O)OCc2oc(=O)oc2C)n1Cc1ccc(-c2ccccc2-c2nn[nH]n2)cc1 in this test
*A* inactive

*Q* Query: recorded result category for Cc1cc(C)nc(NS(=O)(=O)c2ccc(N)cc2)n1 in this test
*A* inactive

*Q* Query: recorded result category for C[C@]12CCC3C(CC[C@H]4CC(=O)CC[C@]34C)C1CCC2=O (stereo partly specified) in this test
*A* inactive

*Q* Query: recorded result category for COC(=O)C1=CO[C@@H](O[C@@H]2O[C@H](CO)[C@@H](O)[C@H](O)[C@H]2O)[C@@H]2[C@@H](C)[C@@H](O)C[C@H]12 in this test
*A* inactive

*Q* Query: recorded result category for CC(C)(O)CC[C@@H](O)[C@](C)(O)C1CC[C@@]2(O)C3=CC(=O)C4C[C@@H](O)[C@@H](O)C[C@]4(C)C3CC[C@]12C (stereo partly specified) in this test
*A* inactive

*Q* Query: recorded result category for Cn1c(=O)[nH]c(=O)c2[nH]cnc21 in this test
*A* inactive

*Q* Query: recorded result category for CCOc1nc2cccc(C(=O)OC(C)OC(=O)OC3CCCCC3)c2n1Cc1ccc(-c2ccccc2-c2nn[nH]n2)cc1 (stereo unspecified) in this test
*A* inactive

*Q* Query: recorded result category for COC(=O)C[C@H]1C(C)(C)[C@@H](OC(C)=O)[C@@H]2CC3C4CC(=O)O[C@@H](c5ccoc5)[C@]4(C)CCC3[C@@]1(C)C2=O (stereo partly specified) in this test
*A* inactive

*Q* Query: recorded result category for CCCCC(=O)N(Cc1ccc(-c2ccccc2-c2nn[nH]n2)cc1)[C@H](C(=O)O)C(C)C in this test
*A* inactive

*Q* Query: recorded result category for CC(C)CCCC(C)[C@H]1CCC2C3CC[C@H]4CC(=O)CC[C@]4(C)C3CC[C@@]21C (stereo partly specified) in this test
*A* inactive

---

ASSAY: chemical genetic growth profiling, strain panel (AID 1159580);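 note: tested at 20 µM; growth read once vehicle control cultures reached saturation at 30 °C; 1 = growth at the plate median or of vehicle wells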
CONDITION SUMMARY: S. cerevisiae deletion strains, growth OD, locus YOR231W, strain MKK1, stronger effect = lower value
About 2,000 (36%) of roughly 5,500 compounds were called active. Not shown: some 18% with an inconclusive outcome. Some of the results follow.
Measured normalized growth of individual entries
Please reply with the value in numeric form only.

Worked examples follow.
COMPOUND	normalized growth
Cn1nnnc1SCC1=C(C(=O)O)N2C(=O)C(NC(=O)C(OC=O)c3ccccc3)C2SC1 (stereo not drawn)	0.983
COc1cc(O)c(C)c(O)c1	1.01

*Q* Answer with reported normalized growth of CN1Cc2c(N)cccc2C(c2ccccc2)C1 (stereo not drawn)
*A* 0.986

*Q* Answer with reported normalized growth of COc1cccc(C(=O)C(C#N)=C(SC)SC)c1
*A* 0.366

*Q* Answer with reported normalized growth of N#C/C(=C\C=C\c1ccccc1)c1nc2ccccc2[nH]1
*A* 0.828

*Q* Answer with reported normalized growth of CC(=O)O[C@H]1CC2CCC3C(CC[C@@]4(C)C3C[C@H]([N+]3(C)CCCCC3)[C@@H]4OC(C)=O)[C@@]2(C)C[C@@H]1[N+]1(C)CCCCC1 (stereo partly drawn)
*A* 1.03

*Q* Answer with reported normalized growth of CCOc1nc2cccc(C(=O)OC(C)OC(=O)OC3CCCCC3)c2n1Cc1ccc(-c2ccccc2-c2nn[nH]n2)cc1 (stereo not drawn)
*A* 0.998

*Q* Answer with reported normalized growth of N/C(=N/OC(=O)c1ccccc1Cl)c1ccc2nonc2c1
*A* 0.96

*Q* Answer with reported normalized growth of COc1cc(OC)c(C(C)=O)c(O)c1C
*A* 0.96

---

ASSAY: chemical genetic growth profiling, strain panel (AID 1159580);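 note: tested at 20 µM; growth read once vehicle control cultures reached saturation at 30 °C; 1 = growth at the plate median or of vehicle wells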
CONDITION SUMMARY: S. cerevisiae deletion strains, growth OD, locus YDR052C, strain DBF4, stronger effect = lower value
About 2,000 (36%) of roughly 5,500 compounds were called active. Not shown: some 18% with an inconclusive outcome. The list shows a part of the results.
READOUT: normalized growth
Please reply with the value in numeric form only.

*Q* Answer with reported normalized growth of N#CC(C#N)=NNc1cc(C(F)(F)F)ccc1OCC(F)(F)F
*A* 0.913

*Q* Answer with reported normalized growth of FC(F)(F)c1ccc(NC(=S)Nc2ccc(C(F)(F)F)cc2Cl)c(Cl)c1
*A* 0.979

*Q* Answer with reported normalized growth of COc1cccc(C(=O)C(C#N)=C(SC)SC)c1
*A* 0.879

*Q* Answer with reported normalized growth of Cc1c(C(=O)NCCNc2ccc(C(F)(F)F)cc2[N+](=O)[O-])cnn1-c1ccc(F)cc1
*A* 0.985

*Q* Answer with reported normalized growth of N#C/C(=N/Nc1ccc(C(F)(F)F)cc1)C(=O)C1CC1
*A* 0.953

*Q* Answer with reported normalized growth of O=C(NNc1c(Cl)cccc1Cl)c1ccc([N+](=O)[O-])o1
*A* 0.981

*Q* Answer with reported normalized growth of CSC(SC)=C(C#N)C(=O)c1ccccc1Cl
*A* 0.826

*Q* Answer with reported normalized growth of O=C(SCc1c(Cl)cccc1Cl)c1ccc([N+](=O)[O-])o1
*A* 0.967

*Q* Answer with reported normalized growth of CCOC(=O)C(NC(C)=O)(Nc1ccc(F)c(Cl)c1)C(F)(F)F (stereo unspecified)
*A* 0.99

*Q* Answer with reported normalized growth of CN(NC(=S)Nc1cc(Cl)ccc1Cl)c1ccc(C(F)(F)F)cc1[N+](=O)[O-]
*A* 0.965

*Q* Answer with reported normalized growth of Nc1ccc(N2CCN(c3ccc(C(F)(F)F)cn3)CC2)nc1
*A* 0.988
